Target: KRAS G12C and cRAF (Ras-binding domain) interaction (Homo sapiens (Human), UniProt P01116, C118S/C51S/C80L/G12C)
Sequence (P01116 other isoform, or with tags, fused parts or gaps G12C/C51S/C80L/C118S): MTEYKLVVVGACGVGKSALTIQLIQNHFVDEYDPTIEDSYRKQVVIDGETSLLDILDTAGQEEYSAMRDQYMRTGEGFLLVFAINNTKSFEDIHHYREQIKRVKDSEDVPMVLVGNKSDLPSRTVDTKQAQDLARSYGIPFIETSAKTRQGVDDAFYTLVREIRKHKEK
Experiment: Inhibition of KRAS G12C and cRAF binding (AlphaScreen)
Conditions: additional exemplary compounds; KRAS G12C and cRAF binding; read-out: RAF1 RBD IC50
pIC50: −log10 of the molar value.
This section presents compounds with their documented pIC50 values.

INSERT INTO results (compound, result) VALUES
  ('Cc1nccc(/C=C/C(=O)N2C3CC2CN(c2nc(OC[C@@]45CCCN4C[C@H](F)C5)nc4c(F)c(-c5cccc6cccc(Cl)c56)ncc24)C3)n1', '< 6.30'),
  ('C=CC(=O)N1C[C@H](N(C)c2nc(OCC34CCCN3CCC4)nc3c(F)c(-c4cccc5cccc(Cl)c45)ncc23)[C@H]1C', '< 6.30'),
  ('C=CC(=O)N1CCC(N(c2nc(OC[C@@]34CCCN3C[C@H](F)C4)nc3c2CCN(c2cccc4cccc(Cl)c24)C3)C2CC2)C1 (stereo partly drawn)', '< 6.30'),
  ('C=CC(=O)N1CCC[C@@H](Nc2nc(OC[C@@]34CCCN3C[C@H](F)C4)nc3c(F)c(-c4cccc5cccc(Cl)c45)ncc23)C1', '< 6.30'),
  ('Cc1nccc(/C=C/C(=O)N2CCN(c3nc(OC[C@@]45CCCN4C[C@H](F)C5)nc4c(F)c(-c5cccc6cccc(Cl)c56)ncc34)C3CC32)n1 (stereo partly drawn)', '< 6.30'),
  ('CCOC/C=C/S(=O)(=O)CCN(C)c1nc(OC[C@@H]2CCCN2C)nc2c(F)c(-c3cccc4cccc(Cl)c34)ncc12', '< 6.30'),
  ('C=CC(=O)N1CC[C@@H](N(CC(F)(F)F)c2nc(OC[C@@]34CCCN3C[C@H](F)C4)nc3c(F)c(-c4cccc5cccc(Cl)c45)ncc23)C1', '< 6.30'),
  ('C=CC(=O)N1CC[C@@H](N(CC)c2nc(OC[C@@]34CCCN3C[C@H](F)C4)nc3c(F)c(-c4cccc5cccc(Cl)c45)ncc23)C1', '< 6.30');

Qu. # get_value(readout='pIC50', item= C=CC(=O)N1CC[C@@H](C)[C@@H](Nc2nc(OC[C@@]34CCCN3C[C@H](F)C4)nc3c(F)c(-c4cccc5cccc(Cl)c45)ncc23)C1 )
Ans. < 6.30

Qu. # get_value(readout='pIC50', item= C#Cc1c(F)ccc2cccc(-c3ncc4c(N(C)[C@@H]5CCN(C(=O)/C=C/c6ccncc6)C5)nc(OC[C@@]56CCCN5C[C@H](F)C6)nc4c3F)c12 )
Ans. < 6.30

Qu. # get_value(readout='pIC50', item= C=CS(=O)(=O)CCN(C)c1nc(OCC23CCCN2CCC3)nc2c(F)c(-c3cccc4cccc(Cl)c34)ncc12 )
Ans. > 8.00

====

Molecular target: KRAS G12C and cRAF (Ras-binding domain) interaction (Homo sapiens (Human), UniProt P01116, C118S/C51S/C80L/G12C)
Assay: Inhibition of KRAS G12C and cRAF binding (AlphaScreen)
Settings: GMPPNP-loaded KRAS G12C, 19-20 hours incubation with compound; read-out: IC50 (Inhibition of KRAS G12C and cRAF Binding)
This section presents molecules with their documented IC50 values.

Consider the worked cases shown below.
INSERT INTO assay_data (molecule, result) VALUES
  ('Cc1cc(/C=C/C(=O)N2CC[C@@H](Nc3nc(OC[C@@]45CCCN4C[C@H](F)C5)nc4c(F)c(-c5cccc6ccc(F)c(F)c56)ncc34)C2)nc(C)n1 [Example 296]', '10 to 100 nM'),
  ('CN(c1nc(OC[C@@]23CCCN2C[C@H](F)C3)nc2c(F)c(-c3cccc4ccc(F)c(Cl)c34)ncc12)[C@@H]1CCN(C(=O)/C=C/[C@H]2CCN2CCO)C1 [Example 222]', '< 10 nM'),
  ('Cc1nccc(/C=C/C(=O)N2CC(CN(C)c3nc(OC[C@@]45CCCN4C[C@H](F)C5)nc4c3CCN(c3cccc5cccc(Cl)c35)C4)C2)n1 [Example 69]', '100 to 500 nM'),
  ('CN(c1nc(OC[C@@]23CCCN2C[C@H](F)C3)nc2c(F)c(-c3cccc4cccc(Cl)c34)ncc12)[C@@H]1CCN(C(=O)C#CC2CNCCO2)C1 (some centres unmarked) [Example 64]', '< 10 nM');

Next molecule, IC50 to be filled in.
Qu. # get_value(readout='IC50', item= C#Cc1c(F)ccc2cccc(-c3ncc4c(N(C)[C@@H]5CCN(C(=O)C=C6CN(C)C6)C5)nc(OC[C@@]56CCCN5C[C@H](F)C6)nc4c3F)c12 [Example 298] )
Ans. < 10 nM
